target: MMP-8 (Homo sapiens, UniProt P22894); construct: In regard to MMP-8, catalytic domain (^99Phe˜^262Gly) was amplified with PCR; His-tag; enterokinase digestion-site; assay: Assay for inhibitory activities on MMPs (fluorogenic peptide substrate), MMP-8
Sequence (P22894 99-262): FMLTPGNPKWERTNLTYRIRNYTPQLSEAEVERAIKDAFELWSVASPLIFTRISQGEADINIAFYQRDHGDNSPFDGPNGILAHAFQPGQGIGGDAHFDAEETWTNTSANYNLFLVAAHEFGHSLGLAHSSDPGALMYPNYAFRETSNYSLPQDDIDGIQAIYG
measuredEndpoint: IC50 (nM)

(A) COc1ccc2cc(C#Cc3ccc(-c4ccc(S(=O)(=O)N[C@H](CCC(=O)O)C(=O)O)cc4)cc3)ccc2c1
(B) O=C(C#Cc1ccccc1)Nc1ccc(-c2ccc(S(=O)(=O)N[C@H](Cc3ccccc3)C(=O)O)cc2)cc1
Data request: Of A and B , whose reported IC50 is numerically smaller? Please reply using the label of the selected record.
Data returned: A

====

target: MMP-8 (Homo sapiens); construct: In regard to MMP-8, catalytic domain (^99Phe˜^262Gly) was amplified with PCR; His-tag; enterokinase digestion-site; experiment: Assay for inhibitory activities on MMPs (fluorogenic peptide substrate), MMP-8
pIC50: −log10 of the molar value.
measuredEndpoint: pIC50

Below are worked cases with known answers.
COc1ccc2cc(C#Cc3ccc(-c4ccc(S(=O)(=O)N[C@H](CC(C)C)C(=O)O)cc4)cc3)ccc2c1 [III-22]	5.24
CCC(C)[C@H](NS(=O)(=O)c1ccc(-c2ccc(NC(=O)c3ccc4ccccc4c3)cc2)cc1)C(=O)O (stereo partly drawn) [VI-43]	7.20
O=C(O)[C@H](Cc1ccccc1)NS(=O)(=O)c1ccc(-c2ccc(C#Cc3ccc4ccccc4c3)cc2)cc1 [III-12]	6.57
COc1ccc(C(=O)Nc2ccc(-c3ccc(S(=O)(=O)N[C@H](Cc4ccccc4)C(=O)O)cc3)cc2)cc1OC [VI-8]	6.14

(P) CC(C)[C@@H](NS(=O)(=O)c1ccc(-c2ccc(NC(=O)c3ccc4ccccc4c3)cc2)cc1)C(=O)O [VI-39]
(Q) C[C@H](NS(=O)(=O)c1ccc(-c2ccc(C#Cc3ccc4ccccc4c3)cc2)cc1)C(=O)O [III-3]
(R) COc1cccc(C(=O)Nc2ccc(-c3ccc(S(=O)(=O)N[C@H](C)C(=O)O)cc3)cc2)c1 [VI-16]
(S) CSCC[C@H](NS(=O)(=O)c1ccc(-c2ccc(NC(=O)c3ccc4ccccc4c3)cc2)cc1)C(=O)O [VI-44]
Data request: Arrange these 4 molecules in increasing order of pIC50. Answer with the labels in sequence, matching the requested order.
Data returned: P, R, S, Q
(P: 5.27, R: 5.96, S: 6.60, Q: 7.25)

====

MMP-2 (Homo sapiens): recorded IC50 for assorted compounds
Sequence (P08253 110-660, species assumed): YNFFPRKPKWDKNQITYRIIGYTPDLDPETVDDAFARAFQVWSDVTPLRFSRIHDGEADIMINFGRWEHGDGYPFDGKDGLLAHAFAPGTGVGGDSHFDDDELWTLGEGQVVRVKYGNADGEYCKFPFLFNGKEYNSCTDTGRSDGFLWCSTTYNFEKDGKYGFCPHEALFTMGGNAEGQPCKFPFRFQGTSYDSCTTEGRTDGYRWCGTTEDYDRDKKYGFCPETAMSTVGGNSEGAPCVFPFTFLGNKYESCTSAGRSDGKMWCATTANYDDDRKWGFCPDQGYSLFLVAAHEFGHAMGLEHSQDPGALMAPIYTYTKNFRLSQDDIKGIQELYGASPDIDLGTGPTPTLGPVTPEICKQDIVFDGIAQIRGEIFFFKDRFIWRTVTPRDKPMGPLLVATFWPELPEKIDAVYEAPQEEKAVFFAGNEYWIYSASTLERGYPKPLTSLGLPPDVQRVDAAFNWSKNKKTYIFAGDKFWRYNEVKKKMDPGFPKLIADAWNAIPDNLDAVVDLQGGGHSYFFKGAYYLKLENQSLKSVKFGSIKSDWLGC
measuredEndpoint: IC50 (nM)

COc1ccc(C(=O)Nc2ccc(-c3ccc(S(=O)(=O)N[C@H](C)C(=O)O)cc3)cc2)cc1 [VI-15]	222
CSCC[C@H](NS(=O)(=O)c1ccc(-c2ccc(NC(=O)c3ccc4ccccc4c3)cc2)cc1)C(=O)O [VI-44]	502
COCc1cccc(C#Cc2ccc(-c3ccc(S(=O)(=O)N[C@@H](CC(C)C)C(=O)O)cc3)cc2)c1 [III-64]	261
O=C(O)[C@H](CO)NS(=O)(=O)c1ccc(-c2ccc(C#Cc3ccc4[nH]ccc4c3)cc2)cc1 [III-56]	65.7
COCc1cccc(C#Cc2ccc(-c3ccc(S(=O)(=O)N[C@H](C(=O)O)C(C)C)cc3)cc2)c1 [III-63]	144

(a) CSCC[C@H](NS(=O)(=O)c1ccc(-c2ccc(C#Cc3ccc4ccccc4c3)cc2)cc1)C(=O)O [III-10]
(b) COc1ccc(C(=O)Nc2ccc(-c3ccc(S(=O)(=O)N[C@H](Cc4ccccc4)C(=O)O)cc3)cc2)cc1OC [VI-8]
Data request: IC50 comparison. Which is larger, a or b ? Please reply using the label of the selected record.
Data returned: b
(b: 1050 nM, a: 374 nM)
